molecular target: ItypOrco (Ips typographus, UniProt A0A7L8XYY7); construct: full-length, N-terminal c-Myc tag; assay: calcium fluorescence dose-response in TREx/HEK293 cells expressing only ItypOrco
Sequence (A0A7L8XYY7 1-480): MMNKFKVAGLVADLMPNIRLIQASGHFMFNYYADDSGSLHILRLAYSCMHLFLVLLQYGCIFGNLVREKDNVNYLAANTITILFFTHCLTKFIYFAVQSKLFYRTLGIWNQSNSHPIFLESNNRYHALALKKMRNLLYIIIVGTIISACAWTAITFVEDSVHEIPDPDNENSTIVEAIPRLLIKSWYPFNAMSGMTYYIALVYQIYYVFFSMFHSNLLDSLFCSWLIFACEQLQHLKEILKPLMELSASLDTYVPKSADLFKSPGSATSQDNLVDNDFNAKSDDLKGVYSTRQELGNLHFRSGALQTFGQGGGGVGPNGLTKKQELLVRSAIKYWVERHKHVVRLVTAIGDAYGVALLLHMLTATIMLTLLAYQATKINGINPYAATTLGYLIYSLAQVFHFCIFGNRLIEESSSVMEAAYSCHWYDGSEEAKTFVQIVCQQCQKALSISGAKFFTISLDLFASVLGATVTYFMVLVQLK
property-measured: EC50 (µM)
Answer in µM, number only, no unit symbol.

Request: Item CCc1ccc(NC(=O)CSc2nnc(-c3cccnc3)n2CC)cc1 [VUAA1] with ItypOrco (Ips typographus, UniProt A0A7L8XYY7) - EC50?
Result: 24.5
